Values were extracted from patent US20140023611A1.

This section presents molecules with their documented IC50 values.
Molecular target: rat NaP2b (SLC34A2) (Rattus norvegicus)
Construct: host or cells: HEK293
Sequence (Q9JJ09 1-695): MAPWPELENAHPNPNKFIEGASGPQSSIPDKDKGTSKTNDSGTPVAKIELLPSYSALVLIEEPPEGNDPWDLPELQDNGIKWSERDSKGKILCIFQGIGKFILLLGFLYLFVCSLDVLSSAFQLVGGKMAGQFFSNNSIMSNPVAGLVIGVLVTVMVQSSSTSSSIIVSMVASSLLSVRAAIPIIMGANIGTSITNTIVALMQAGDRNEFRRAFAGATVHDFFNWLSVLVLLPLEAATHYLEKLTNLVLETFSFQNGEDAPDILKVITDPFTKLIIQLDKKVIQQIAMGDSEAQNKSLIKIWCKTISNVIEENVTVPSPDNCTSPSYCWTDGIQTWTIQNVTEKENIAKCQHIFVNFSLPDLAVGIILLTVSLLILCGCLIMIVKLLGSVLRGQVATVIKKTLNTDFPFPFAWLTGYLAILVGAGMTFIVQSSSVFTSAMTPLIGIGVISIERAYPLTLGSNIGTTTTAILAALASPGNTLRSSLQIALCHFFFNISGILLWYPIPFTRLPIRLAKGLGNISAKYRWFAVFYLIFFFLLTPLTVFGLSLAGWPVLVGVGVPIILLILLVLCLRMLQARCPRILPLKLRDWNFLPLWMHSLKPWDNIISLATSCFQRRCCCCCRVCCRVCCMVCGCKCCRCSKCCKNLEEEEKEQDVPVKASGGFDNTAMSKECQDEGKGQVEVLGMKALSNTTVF
Experiment: Inhibition of NaP2b-mediated Pi (33P) uptake in transfected HEK293 cells, rat NaP2b
Type: cell-based
Conditions: 33P Pi uptake, 0.1 mM phosphate, value given as pIC50 range

Worked examples follow.
| smiles.code | tested.on | measured.attribute | test.result |
| --- | --- | --- | --- |
| CCN(CC)c1ccc(NC(=O)c2cccc(C(=O)N(C)CCN3CCCN(C(=O)CCOCCOCCOCCOCCOCCOCCOCCOC)CC3)c2)c(-c2cc(C(=O)N[C@H]3CCCc4ccccc43)ccn2)c1 | rat NaP2b (SLC34A2) (Rattus norvegicus) | IC50 | 1000 to 7940 nM |
| CCN(CC)c1ccc(NC(=O)c2cccc(CSCCOCCOCCOCCOCCC(=O)NC(CO)(CO)CO)c2)c(-c2cc(C(=O)N[C@H]3CCCc4ccccc43)ccn2)c1 | rat NaP2b (SLC34A2) (Rattus norvegicus) | IC50 | < 1000 nM |
| O=C(O)CCSCc1cccc(C(=O)Nc2ccc(N3CCCCC3)cc2-c2cc(C(=O)NC3Cc4ccccc4C3)ccn2)c1 | rat NaP2b (SLC34A2) (Rattus norvegicus) | IC50 | 1000 to 7940 nM |
| O=C(O)CCOCCOCCOCCNC(=O)c1cccc(SCc2cccc(C(=O)Nc3ccc(N4CCCCC4)cc3-c3cc(C(=O)NCc4cccc(C(F)(F)F)c4)ccn3)c2)c1 | rat NaP2b (SLC34A2) (Rattus norvegicus) | IC50 | 1000 to 7940 nM |

Next, consider the following molecule.
Request: Quick one: IC50 of "CCN(CC)c1ccc(NC(=O)c2cccc(CCCOCCOCCOCCOCCNC(=O)N(CCO)CCO)c2)c(-c2cc(C(=O)NCc3cccc(C(F)(F)F)c3)ccn2)c1" ?
Result: 1000 to 7940 nM
